The reported numbers originate from ChEMBL document CHEMBL1145071.

measurement target: Protein kinase Pfmrk (Plasmodium falciparum, UniProt P90584)
Sequence (P90584 whole entry): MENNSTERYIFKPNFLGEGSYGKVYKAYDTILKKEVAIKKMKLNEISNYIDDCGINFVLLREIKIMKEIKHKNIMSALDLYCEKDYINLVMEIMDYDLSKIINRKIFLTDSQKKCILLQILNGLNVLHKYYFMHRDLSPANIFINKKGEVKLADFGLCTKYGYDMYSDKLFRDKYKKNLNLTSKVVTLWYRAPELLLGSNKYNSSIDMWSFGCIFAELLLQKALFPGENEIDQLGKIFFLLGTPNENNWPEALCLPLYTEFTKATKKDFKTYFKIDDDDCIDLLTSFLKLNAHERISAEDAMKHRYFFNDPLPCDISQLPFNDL
Please respond with reported IC50 for every item in the list.
Numbers only, in µM.

Solved cases (5 shown):
1) O=C1Cc2c([nH]c3ccc(Br)cc23)-c2ccccc2N1    15
2) O=C1Cc2c([nH]c3ccc([N+](=O)[O-])cc23)-c2ccccc2N1    51
3) CCOC(=O)/C(C#N)=C1/C(=O)Nc2ccccc21    41.7
4) CN[C@@H]1C[C@H]2O[C@@](C)([C@@H]1OC)n1c3ccccc3c3c4c(c5c6ccccc6n2c5c31)C(=O)NC4 (single isomer, unassigned)    4
5) COC(=O)[C@@]1(Cc2ccc(O)c(CC=C(C)C)c2)OC(=O)C(O)=C1c1ccc(O)cc1    94

Please look at the items below and tell me IC50 for each one, in order.
1. CC(C)[C@H](CO)Nc1nc(Nc2cccc(Cl)c2)c2ncn(C(C)C)c2n1
2. Cc1ccc(C(=O)/C=C2/C(=O)Nc3ccc(Br)cc32)cc1
3. O=C1Nc2ccccc2/C1=C\c1ccc(C(F)(F)F)cc1
4. O=C1Nc2ccc(Br)cc2/C1=C/C(=O)c1ccccc1

1: 26; 2: 2.9; 3: 4.3; 4: 3.1
